# assay.protocol: Plasma pharmacokinetics (validated HPLC/MS, noncompartmental analysis)
# Type: in vivo, human
# condition.description: human, plasma, oral; Day 1 of cycle 1, 160 mg/day, mean (SD), two patients excluded; read-out: t1/2 (converted)
observed.property: half-life (h)
# value in h; strip the unit string

compound CC1(C)CCC2(CC1)N[C@@H](C(=O)N[C@@H]1CC[C@@H](C(N)=O)OC1)[C@H](c1ccnc(Cl)c1F)[C@]21C(=O)Nc2cc(Cl)ccc21 , half-life observed: 14.6

###

# assay.protocol: Plasma pharmacokinetics (validated HPLC/MS, noncompartmental analysis)
# Type: in vivo, human
# condition.description: human, plasma, oral, 120 mg/day, Day 14 of cycle 1, 120 mg/day, mean (SD); read-out: AUC8h
observed.property: AUC(0-t) (ng·h/mL)
# value in ng·h/mL; strip the unit string

compound CC1(C)CCC2(CC1)N[C@@H](C(=O)N[C@@H]1CC[C@@H](C(N)=O)OC1)[C@H](c1ccnc(Cl)c1F)[C@]21C(=O)Nc2cc(Cl)ccc21 , AUC(0-t) observed: 10000
